pIC50: −log10 of the molar value.
Assay read-out pIC50; system under study: Human HDAC6 (Homo sapiens (Human), UniProt Q9UBN7).
Sequence (Q9UBN7 whole entry): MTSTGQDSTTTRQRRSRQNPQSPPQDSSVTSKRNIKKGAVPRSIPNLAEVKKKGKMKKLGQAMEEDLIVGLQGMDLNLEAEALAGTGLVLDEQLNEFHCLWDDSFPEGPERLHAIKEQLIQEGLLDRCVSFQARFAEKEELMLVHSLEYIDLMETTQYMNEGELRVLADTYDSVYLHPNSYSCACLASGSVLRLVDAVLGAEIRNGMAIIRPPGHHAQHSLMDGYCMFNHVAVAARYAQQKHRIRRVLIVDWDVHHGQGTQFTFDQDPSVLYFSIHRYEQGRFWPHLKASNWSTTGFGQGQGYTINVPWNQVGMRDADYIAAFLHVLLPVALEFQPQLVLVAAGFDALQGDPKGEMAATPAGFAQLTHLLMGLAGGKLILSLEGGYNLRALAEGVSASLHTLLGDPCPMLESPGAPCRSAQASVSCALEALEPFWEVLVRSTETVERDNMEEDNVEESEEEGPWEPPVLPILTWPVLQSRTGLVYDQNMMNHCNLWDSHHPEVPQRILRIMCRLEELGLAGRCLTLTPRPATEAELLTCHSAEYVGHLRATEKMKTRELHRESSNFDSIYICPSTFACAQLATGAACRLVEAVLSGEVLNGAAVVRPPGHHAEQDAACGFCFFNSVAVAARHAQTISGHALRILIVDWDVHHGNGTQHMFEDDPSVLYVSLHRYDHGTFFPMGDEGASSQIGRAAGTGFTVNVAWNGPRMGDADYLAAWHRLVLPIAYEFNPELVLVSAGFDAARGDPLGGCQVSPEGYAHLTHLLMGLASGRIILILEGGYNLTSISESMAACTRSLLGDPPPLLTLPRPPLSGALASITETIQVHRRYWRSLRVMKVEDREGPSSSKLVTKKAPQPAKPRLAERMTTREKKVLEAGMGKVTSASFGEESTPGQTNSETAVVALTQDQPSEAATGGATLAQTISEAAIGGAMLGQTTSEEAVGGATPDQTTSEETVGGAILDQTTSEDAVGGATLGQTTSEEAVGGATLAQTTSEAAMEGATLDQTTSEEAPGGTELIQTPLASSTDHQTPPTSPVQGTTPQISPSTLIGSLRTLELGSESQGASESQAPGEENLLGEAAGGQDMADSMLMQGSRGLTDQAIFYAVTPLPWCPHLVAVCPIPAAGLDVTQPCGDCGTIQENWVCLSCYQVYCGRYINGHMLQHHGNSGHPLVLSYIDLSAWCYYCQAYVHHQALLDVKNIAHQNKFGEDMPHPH

FC(F)c1nnc(-c2ccc(COc3cccc4ccncc34)nc2)o1
7.00 to 9.00
Fc1ccc(OCc2ccc(-c3nnc(C(F)F)o3)cn2)c(F)c1
7.00 to 9.00
CN(C)CCn1cnc2cc(OCc3ccc(-c4nnc(C(F)F)o4)cn3)ccc21
5.00 to 6.00
FC(F)c1nnc(-c2cnc(COc3ccc4nccnc4c3)nc2)o1
7.00 to 9.00
N#CCc1cccc(OCc2ccc(-c3nnc(C(F)F)o3)cn2)c1
7.00 to 9.00
CC(C)n1cnc2cc(OCc3ccc(-c4nnc(C(F)F)o4)cn3)ccc21
6.00 to 7.00
Cc1nc(OCc2ccc(-c3nnc(C(F)F)o3)cn2)c2ccccc2n1
7.00 to 9.00
FC(F)c1nnc(-c2ccc(COc3ccccc3-c3ccccc3)nc2)o1
5.00 to 6.00
FC(F)c1nnc(-c2ccc(C(F)(F)Oc3cccc4ccccc34)nc2)o1
6.00 to 7.00
Cc1noc2cc(OCc3ncc(-c4nnc(C(F)F)o4)cn3)ccc12
7.00 to 9.00

Data request, read-out pIC50, for Cn1nccc1OCc1ccc(-c2nnc(C(F)F)o2)cn1
6.00 to 7.00

Moving on to Fc1ccc(OCc2ncc(-c3nnc(C(F)F)o3)cn2)cc1 [Compound 166]
7.00 to 9.00

Here is the next molecule: Cc1nc2ccc(OCc3ccc(-c4nnc(C(F)F)o4)cn3)cc2o1
7.00 to 9.00

* * *

TARGET_OF_ASSAY: Human HDAC6 (Homo sapiens (Human), UniProt Q9UBN7)
TEST_NAME: HDAC6 enzymatic activity assay (Caliper endpoint or fluorogenic format)
Format: biochemical
REPORTED_CONDITIONS: ratio of HDAC8 IC50/HDAC6 IC50
MEASUREMENT_KIND: Selectivity (6 v 8) (fold)

// solved cases for Selectivity (6 v 8) (fold) follow
Cn1cnc2cc(OCc3ccc(-c4nnc(C(F)F)o4)cn3)ccc21 [Compound 57]
IV (IV: >100-1000)
Fc1ccc(Cl)c(OCc2ccc(-c3nnc(C(F)F)o3)cn2)c1 [Compound 7]
V (V: >1000)
FC(F)c1nnc(-c2ccc(COc3ccccn3)nc2)o1 [Compound 16]
V (V: >1000)
FC(F)c1nnc(-c2ccc(COc3ccc4ncccc4c3)nc2)o1 [Compound 62]
V (V: >1000)
Fc1ccc(OCc2ccc(-c3nnc(C(F)F)o3)cn2)nc1 [Compound 76]
V (V: >1000)
Cc1ccnc(OCc2ccc(-c3nnc(C(F)F)o3)cn2)c1 [Compound 71]
V (V: >1000)

For the molecule shown here, Cn1ncc2cc(OCc3ccc(-c4nnc(C(F)F)o4)cn3)ccc21 [Compound 37] , give the reported Selectivity (6 v 8) (fold).
V (V: >1000)

# iterate: FC(F)c1nnc(-c2ccc(COc3ccc(C4CC4)nn3)nc2)o1 [Compound 83]
IV (IV: >100-1000)

Next molecule up: Fc1cncc(OCc2ccc(-c3nnc(C(F)F)o3)cn2)c1 [Compound 19]
V (V: >1000)

Try Cc1nc(OCc2ccc(-c3nnc(C(F)F)o3)cn2)c2ccccc2n1 [Compound 97] next.
V (V: >1000)

// query: N#Cc1ccc(F)cc1OCc1ccc(-c2nnc(C(F)F)o2)cn1 [Compound 50]
V (V: >1000)
